tested on: HepG2; assay: cytotoxicity call (relative viability < 0.9); settings: 10 µM
In all, about 39,000 compounds went through this assay and about 3,300 (8.5%) were called active. Many of the other results were omitted from the sample, so actives are more common in it than they were.
readout label: cytotoxicity call

O=C(/C=C/c1cccc(-c2cn(-c3cccc(C(=O)N4CCC5(CC4)C(=O)NCN5c4ccccc4)c3)nn2)c1)NO    inactive
Cc1cc2cc3c(C)cc(=O)oc3c(C)c2o1    inactive
Cc1ccc(S[C@]2(C(=O)NC3CC3)CC(=O)N(C3CCCCC3)[C@@H]2c2ccc(CO)cc2I)cc1    inactive

----------
system: HepG2; test: cytotoxicity call (relative viability < 0.9); details: 10 µM
Screen size: about 39,000 compounds; about 3,300 (8.5%) were called active. The entries come from a sample that favours actives as a whole.
# valid calls are true (1) = active, false (0) = inactive; nothing else

Example results:
CN1CCN(C(=O)C[C@@H]2CC[C@@H]3[C@H](COC[C@@H](O)CN3S(=O)(=O)c3cccc(Cl)c3)O2)CC1    false (0)
Cc1noc(C)c1NC(=O)N(C)C[C@H]1Oc2ccc(NS(=O)(=O)c3ccccc3)cc2C(=O)N([C@H](C)CO)C[C@@H]1C    false (0)

Please indicate how the test categorized O=C1O[C@H](c2ccccc2)[C@H](c2ccccc2)N2[C@H]1[C@@H](C(=O)Nc1nc3ccccc3s1)[C@]1(C(=O)Nc3ccc(C#CC4(O)CCCCCC4)cc31)[C@H]2c1ccccc1OCCO .
false (0)

Given C[C@H](CO)N1C[C@H](C)[C@H](CN(C)Cc2ccncc2)Oc2c(NS(=O)(=O)c3cccs3)cccc2C1=O , state the outcome it received in this test.
false (0)

Just curious, what result did CCOC(=O)[C@H]1CC(C)=NNC1=O get here?
false (0)

What was the test verdict on C[C@H](CO)N1C[C@H](C)[C@H](CN(C)C(=O)Nc2ccccc2)Oc2ccc(NC(=O)CCCN(C)C)cc2C1=O ?
false (0)

Give the logged outcome of this assay for the following compound: COc1ccc(NC(=O)N(C)C[C@@H]2Oc3ccc(NS(C)(=O)=O)cc3C(=O)N([C@H](C)CO)C[C@H]2C)cc1
false (0)

----------
system: HepG2; test: cytotoxicity call (relative viability < 0.9); conditions: 10 µM
Screen size: about 39,000 compounds; about 3,300 (8.5%) were called active. The entries come from a sample that favours actives as a whole.
Choose the fitting class; nothing outside T for active, F for inactive is accepted.

Below, 4 compounds whose answers are already recorded.
C[C@H](CO)N1C[C@H](C)[C@H](CN(C)S(=O)(=O)c2ccc(Cl)cc2)OCCCC[C@H](C)Oc2ccc(NS(=O)(=O)c3ccc(Cl)cc3)cc2C1=O    T
Cc1noc(C)c1S(=O)(=O)Nc1ccc2c(c1)C(=O)N([C@@H](C)CO)C[C@@H](C)[C@H](CN(C)S(C)(=O)=O)OCCCC[C@@H](C)O2    F
C[C@@H]1CN([C@H](C)CO)C(=O)c2cc(NS(=O)(=O)c3ccc(Cl)cc3)ccc2O[C@@H](C)CCCCO[C@@H]1CN(C)S(=O)(=O)c1ccc(Cl)cc1    F
C[C@@H]1CCCCO[C@@H](CN(C)S(=O)(=O)c2ccc(Cl)cc2)[C@@H](C)CN([C@H](C)CO)C(=O)c2cc(NS(=O)(=O)c3ccc(Cl)cc3)ccc2O1    F

Pending compound:
Check the results log: what was the call for COc1cccc(S(=O)(=O)N[C@H]2C=C[C@H](CC(=O)NC3CCC3)O[C@@H]2CO)c1 ?
F
